Assay: Pharmacokinetic (toxicokinetic) study, plasma
Assay type: in vivo, Sprague Dawley rats
Details: female, Sprague Dawley, rat, plasma, iv, 80 mg/kg, Day 1, 80 mg/kg IV, Female, plasma; read-out: T1/2 (converted)
propertyLabel: half-life (h)
Answers are plain numbers, in h.

Looking up CC(=O)N[C@H]1[C@H](Oc2ccc([N+](=O)[O-])cc2)O[C@H](CO)[C@@H](O)[C@@H]1O , I found its half-life recorded as 1.45

###

Experiment: Pharmacokinetic (toxicokinetic) study, plasma
Assay type: in vivo, Sprague Dawley rats
Settings: male, Sprague Dawley, rat, plasma, iv, 40 mg/kg, Day 3, 40 mg/kg IV, Male, plasma
propertyLabel: AUC(0-t) (ng·h/mL)
Numbers only, in ng·h/mL.

Looking up CC(=O)N[C@H]1[C@H](Oc2ccc([N+](=O)[O-])cc2)O[C@H](CO)[C@@H](O)[C@@H]1O , I found its AUC(0-t) recorded as 46200
